test system: NIM1; construct: gene MGC42105; conditions: concentration: 1 μM,replicates: in singlicate; n = 1;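 also: KINOMEscan kinase panel screen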
t if %Inh is below 20%. f if not; exact matches included in f.

Ask | Decide: %Inh of `C[C@@H](Oc1cc(-n2cnc3cc(-c4ccncc4)ccc32)sc1C(N)=O)c1ccccc1Cl` strictly below 20%?
Reply | f

Ask | Decide: %Inh of COc1ccc(Nc2nccc(N3CCC(NC(=O)c4cccc(C#N)c4)C3)n2)cc1 (stereo not drawn) strictly below 20%?
Reply | t

Ask | Decide: %Inh of Cc1nnc(-c2ccc3occ(-c4ccc(S(C)=O)cc4)c3n2)o1 (stereo not drawn) strictly below 20%?
Reply | t

Ask | Decide: %Inh of `Cn1ccc2ncnc(Oc3ccc(NC(=O)Nc4cccc(C(F)(F)F)c4)c(Cl)c3)c21` strictly below 20%?
Reply | t

Ask | Decide: %Inh of `O=C(Nc1cccc(C(F)(F)F)c1)c1cccc(Oc2ccc3nccn3n2)c1` strictly below 20%?
Reply | f

Ask | Decide: %Inh of `O=C(NCC1CC1)c1ccc(-c2cc(C(=O)NC3CC3)ccc2F)cc1` strictly below 20%?
Reply | f

Ask | Decide: %Inh of `COc1cc2nccc(Nc3ccc(Oc4ccccc4)cc3)c2cc1OC.Cl` strictly below 20%?
Reply | t

Ask | Decide: %Inh of `CS(=O)(=O)c1cccc(CNc2nc(Nc3ccc4c(c3)[C@@H]3C[C@@H]4CNC3=O)ncc2C(F)(F)F)c1` strictly below 20%?
Reply | t

Ask | Decide: %Inh of `CC(=O)Nc1ccc(-c2cc3ncnc(SCC(=O)O)c3s2)cc1` strictly below 20%?
Reply | t

Ask | Decide: %Inh of `COc1cc2c(Nc3ccc(NC(=O)c4ccccc4)cc3)ncnc2cc1OCCCN1CCOCC1` strictly below 20%?
Reply | t

Ask | Decide: %Inh of `CCCC(=O)Nc1n[nH]c2ncccc12` strictly below 20%?
Reply | t

Ask | Decide: %Inh of `C[C@@H]1CNc2c(sc3ccc4nc(-c5ccc(O)cc5)ccc4c23)C(=O)N1` strictly below 20%?
Reply | f

Ask | Decide: %Inh of `Cc1ccc2c(-c3ccnc(Nc4ccc(C(F)(F)F)cc4)n3)cnn2n1` strictly below 20%?
Reply | t

Ask | Decide: %Inh of `O=C(NOCC1CC1)c1cc(Br)c(F)c(F)c1Nc1ccc(I)cc1Cl` strictly below 20%?
Reply | f

###

Please go through the items and note down their %Inh.
system: CAMK1G; settings: concentration: 1 μM,replicates: in singlicate; n = 1
Record the value in %, omitting the unit from your answer.

Ask | Could you share what %Inh was measured for `Cn1ccc2ncnc(Oc3ccc(NC(=O)Nc4cc(C(C)(C)C)on4)c(Cl)c3)c21` , tested on CAMK1G?
Reply | 12

Ask | Could you share what %Inh was measured for `COc1cc2c(Nc3ccc(NC(=O)c4ccccc4)cc3)ncnc2cc1OCCCN1CCOCC1` , tested on CAMK1G?
Reply | 9

Ask | Could you share what %Inh was measured for `CC(C)c1nc(-c2cccc(NS(=O)(=O)c3ccccc3)c2)c(-c2ccnc(Nc3ccc4c(c3)CN(C)CC4)n2)s1` , tested on CAMK1G?
Reply | 11

Ask | Could you share what %Inh was measured for `C[C@@H]1CNc2c(sc3ccc4nc(-c5ccc(O)cc5)ccc4c23)C(=O)N1` , tested on CAMK1G?
Reply | 16

Ask | Could you share what %Inh was measured for `FC(F)(F)c1cc(Br)cc(Nc2nccc(-c3cnn4ncccc34)n2)c1` , tested on CAMK1G?
Reply | 18

Ask | Could you share what %Inh was measured for `Cc1ccc(Nc2ccnc(Nc3ccc4c(c3)CS(=O)(=O)C4)n2)cc1O.Cl` , tested on CAMK1G?
Reply | 34

Ask | Could you share what %Inh was measured for `Cn1ccc2ncnc(Oc3ccc(NC(=O)Nc4cnn(C(C)(C)C)c4)c(Cl)c3)c21` , tested on CAMK1G?
Reply | 0

Ask | Could you share what %Inh was measured for `CC(=O)c1c(-c2ccncc2)[nH]c(-c2ccncc2)c1C` , tested on CAMK1G?
Reply | 0

Ask | Could you share what %Inh was measured for `CC(=O)Nc1ccc(-c2cc3ncnc(SCC(=O)O)c3s2)cc1` , tested on CAMK1G?
Reply | 19

Ask | Could you share what %Inh was measured for `Cn1ccc2ncnc(Oc3ccc(NC(=O)Nc4cccc(C(F)(F)F)c4)c(Cl)c3)c21` , tested on CAMK1G?
Reply | 1

Ask | Could you share what %Inh was measured for COc1ccc(Nc2nccc(N3CCC(NC(=O)c4cccc(C#N)c4)C3)n2)cc1 (centres unmarked) , tested on CAMK1G?
Reply | 0

###

tested on: CHEK2; conditions: concentration: 1 μM,replicates: in singlicate; n = 1
1 (yes) if %Inh is below 10%. 0 (no) if not; exact matches included in 0 (no).

Ask | Decide: %Inh of `NC(=O)c1ccc(-c2cc3ncnc(SCC(=O)O)c3s2)cc1` strictly below 10%?
Reply | 1 (yes)

Ask | Decide: %Inh of Cc1ccn2nc(-c3ccc(F)cc3)c(-c3ccncc3)c2c1.Cl [GW457859] strictly below 10%?
Reply | 0 (no)

Ask | Decide: %Inh of `Cn1ccc2ncnc(Oc3ccc(NC(=O)Nc4cc(C(C)(C)C)on4)c(Cl)c3)c21` strictly below 10%?
Reply | 1 (yes)

Ask | Decide: %Inh of Cc1ccc(CC(=O)N2CCc3cc(-c4cn(C)c5ncnc(N)c45)ccc32)cc1 [GSK2634758] strictly below 10%?
Reply | 0 (no)

Ask | Decide: %Inh of Nc1nccc(-c2ccc3c(N)n[nH]c3c2)n1 [GSK1034945] strictly below 10%?
Reply | 0 (no)

Ask | Decide: %Inh of COC(=O)c1cccc(NC(=O)NC2CCN(c3ccnc(Nc4cc(OC)c(OC)c(OC)c4)n3)C2)c1 (stereo not drawn) [GSK1379767] strictly below 10%?
Reply | 0 (no)

Ask | Decide: %Inh of CNC(=O)c1ccccc1Nc1nc(Nc2cccc(CS(C)(=O)=O)c2)ncc1C.O=CO [GSK1520489] strictly below 10%?
Reply | 0 (no)

Ask | Decide: %Inh of CN1CCN(CCCNc2nccc(-c3c(-c4ccc(F)cc4)nn4cc(C(N)=O)ccc34)n2)CC1 [GW622475] strictly below 10%?
Reply | 1 (yes)

Ask | Decide: %Inh of COc1cccc(CNC(=O)NC2CCN(c3ccnc(Nc4cc(OC)c(OC)c(OC)c4)n3)C2)c1 (stereo not drawn) [GSK1379765] strictly below 10%?
Reply | 0 (no)

Ask | Decide: %Inh of CC(C)S(=O)(=O)N1CCN(Cc2ccc3c(c2)nc(NC(=O)c2ccsc2)n3C[C@H](O)c2ccccc2)CC1 [GW635815] strictly below 10%?
Reply | 0 (no)

Ask | Decide: %Inh of CC(=O)c1c(-c2ccncc2)[nH]c(-c2ccncc2)c1C [GW493036] strictly below 10%?
Reply | 1 (yes)

Ask | Decide: %Inh of `CC(=O)Nc1ccc(-c2cc3ncnc(SCC(=O)O)c3s2)cc1` strictly below 10%?
Reply | 0 (no)

Ask | Decide: %Inh of COc1ccc(Nc2nccc(N3CCC(NC(=O)c4cccc(C#N)c4)C3)n2)cc1 (stereo not drawn) [GSK1379730] strictly below 10%?
Reply | 1 (yes)

Ask | Decide: %Inh of c1ccc(Oc2ccc(Nc3ccnc4ccc(-c5ccccn5)cc34)cc2)cc1 [GW407034] strictly below 10%?
Reply | 1 (yes)

Ask | Decide: %Inh of N#Cc1cccc(C(=O)NC2CCN(c3ccnc(Nc4ccc(F)cc4)n3)C2)c1 (stereo not drawn) [GSK1379708] strictly below 10%?
Reply | 1 (yes)

Ask | Decide: %Inh of Cc1nnc(-c2ccc3occ(-c4ccc(S(C)=O)cc4)c3n2)o1 (stereo not drawn) strictly below 10%?
Reply | 1 (yes)

Ask | Decide: %Inh of `OCCn1cc(-c2cnc3nnn(Cc4ccc5ncccc5c4)c3n2)cn1` strictly below 10%?
Reply | 1 (yes)

###

system: ITK; details: concentration: 1 μM,replicates: in singlicate; n = 1
Please go through the items and note down their %Inh.
Record the value in %, omitting the unit from your answer.

Ask | Item `NC(=O)c1ccc(-c2cc3ncnc(SCC(=O)O)c3s2)cc1` has what recorded %Inh?
Reply | 0

Ask | Item COc1ccc(Nc2nccc(N3CCC(NC(=O)c4cccc(C#N)c4)C3)n2)cc1 (stereo not shown) has what recorded %Inh?
Reply | 14

Ask | Item `C[C@@H](Oc1cc(-n2cnc3cc(-c4ccncc4)ccc32)sc1C(N)=O)c1ccccc1Cl` has what recorded %Inh?
Reply | 11

Ask | Item CC(C(=O)NC1CCN(c2ccnc(Nc3ccc(F)cc3)n2)C1)c1ccc(Cl)cc1 (stereo not shown) has what recorded %Inh?
Reply | 10

Ask | Item `CC(=O)Nc1nc2cnc(Nc3cc(NC(=O)c4cccc(CC(C)(C)C#N)c4)ccc3C)nc2s1` has what recorded %Inh?
Reply | 0

Ask | Item `Cc1ccc(CC(=O)N2CCc3cc(-c4cn(C)c5ncnc(N)c45)ccc32)cc1` has what recorded %Inh?
Reply | 13

Ask | Item `c1ccc(Oc2ccc(Nc3ccnc4ccc(-c5ccccn5)cc34)cc2)cc1` has what recorded %Inh?
Reply | 13
